- Test system: 201T
- assay procedure: relative viability (nuclei count vs DMSO), 5 days (fraction); higher = more cells survive
- condition parameters: first compound 0.5 µM
Quick reference for relative viability among some compounds

- compound: "COc1cc2nccc(Oc3ccc(NC(=O)Nc4cc(C)on4)c(Cl)c3)c2cc1OC [Tivozanib] + C[C@@H](Oc1cc(-c2cnn(C3CCNCC3)c2)cnc1N)c1c(Cl)ccc(F)c1Cl [Crizotinib] (partner 1 µM)"
  relative viability: 1.04
- compound: "COc1cc2nccc(Oc3ccc(NC(=O)Nc4cc(C)on4)c(Cl)c3)c2cc1OC [Tivozanib] + COc1cccc2cc(-c3nc([C@H]4CC[C@H](C(=O)O)CC4)n4ncnc(N)c34)[nH]c12 [OSI-027] (partner 0.5 µM)"
  relative viability: 0.709
- compound: "Nc1ccn([C@@H]2O[C@H](CO)[C@@H](O)[C@@H]2O)c(=O)n1 [Cytarabine] + Cc1cc(Nc2cc(N3CCN(C)CC3)nc(Sc3ccc(NC(=O)C4CC4)cc3)n2)n[nH]1 [Tozasertib] (partner 0.1 µM)"
  relative viability: 0.706
- compound: "Nc1ccn([C@@H]2O[C@H](CO)[C@@H](O)[C@@H]2O)c(=O)n1 [Cytarabine] + CC(=O)c1c(C)c2cnc(Nc3ccc(N4CCNCC4)cn3)nc2n(C2CCCC2)c1=O [Palbociclib] (partner 0.5 µM)"
  relative viability: 0.31

* * *

- System: NCI-H2087
- assay procedure: relative viability (nuclei count vs DMSO), 5 days (fraction); higher = more cells survive
- condition parameters: first compound 0.1581 µM
readout label: relative viability

- compound: "COc1cc2nccc(Oc3ccc(NC(=O)Nc4cc(C)on4)c(Cl)c3)c2cc1OC [Tivozanib] + O=C(c1cc(Cc2n[nH]c(=O)c3ccccc23)ccc1F)N1CCN(C(=O)C2CC2)CC1 [Olaparib] (partner 8 µM)"
  readout label: "relative viability"
  recorded result: 0.683
- compound: "Nc1ccn([C@@H]2O[C@H](CO)[C@@H](O)[C@@H]2O)c(=O)n1 [Cytarabine] + CC1(C)CCC(c2ccc(Cl)cc2)=C(CN2CCN(c3ccc(C(=O)NS(=O)(=O)c4ccc(N[C@H](CCN5CCOCC5)CSc5ccccc5)c(S(=O)(=O)C(F)(F)F)c4)cc3)CC2)C1 [Navitoclax] (partner 0.5 µM)"
  readout label: "relative viability"
  recorded result: 0.542
- compound: "Nc1ccn([C@@H]2O[C@H](CO)[C@@H](O)[C@@H]2O)c(=O)n1 [Cytarabine] + COc1cc2c(Oc3ccc(NC(=O)C4(C(=O)Nc5ccc(F)cc5)CC4)cc3F)ccnc2cc1OCCCN1CCOCC1 [Foretinib] (partner 0.25 µM)"
  readout label: "relative viability"
  recorded result: 0.491
- compound: "COc1cc2nccc(Oc3ccc(NC(=O)Nc4cc(C)on4)c(Cl)c3)c2cc1OC [Tivozanib] + CS(=O)(=O)CCNCc1ccc(-c2ccc3ncnc(Nc4ccc(OCc5cccc(F)c5)c(Cl)c4)c3c2)o1 [Lapatinib] (partner 2 µM)"
  readout label: "relative viability"
  recorded result: 1.2

* * *

- Tested on: NCI-H1355
- assay procedure: relative viability (nuclei count vs DMSO), 5 days (fraction); higher = more cells survive
- condition parameters: first compound 0.1581 µM
The following compounds are listed with their measured relative viability values.
readout label: relative viability

- compound: "COc1cc2nccc(Oc3ccc(NC(=O)Nc4cc(C)on4)c(Cl)c3)c2cc1OC [Tivozanib] + Nc1ncn([C@H]2C[C@H](O)[C@@H](CO)O2)c(=O)n1 [Decitabine] (partner 2 µM)"
  readout label: "relative viability"
  recorded result: 0.333
- compound: "COc1cc2nccc(Oc3ccc(NC(=O)Nc4cc(C)on4)c(Cl)c3)c2cc1OC [Tivozanib] + CC(=O)Nc1cccc(-n2c(=O)n(C3CC3)c(=O)c3c(Nc4ccc(I)cc4F)n(C)c(=O)c(C)c32)c1 [Trametinib] (partner 0.02 µM)"
  readout label: "relative viability"
  recorded result: 0.33

* * *

- System: NCI-H727
- assay procedure: relative viability (nuclei count vs DMSO), 5 days (fraction); higher = more cells survive
- condition parameters: first compound 0.01581 µM

- molecule: "COc1cc2nccc(Oc3ccc(NC(=O)Nc4cc(C)on4)c(Cl)c3)c2cc1OC [Tivozanib] + Cc1cc(Nc2cc(N3CCN(C)CC3)nc(Sc3ccc(NC(=O)C4CC4)cc3)n2)n[nH]1 [Tozasertib] (partner 0.1 µM)"
  relative viability: 0.649
- molecule: "COc1cc2nccc(Oc3ccc(NC(=O)Nc4cc(C)on4)c(Cl)c3)c2cc1OC [Tivozanib] + COc1cc2c(Oc3ccc(NC(=O)C4(C(=O)Nc5ccc(F)cc5)CC4)cc3F)ccnc2cc1OCCCN1CCOCC1 [Foretinib] (partner 0.25 µM)"
  relative viability: 1.04

* * *

- Tested on: HCC-827
- assay procedure: relative viability (nuclei count vs DMSO), 5 days (fraction); higher = more cells survive
- condition parameters: first compound 0.05 µM

- compound: "Nc1ccn([C@@H]2O[C@H](CO)[C@@H](O)[C@@H]2O)c(=O)n1 [Cytarabine] + O=C(c1cc(Cc2n[nH]c(=O)c3ccccc23)ccc1F)N1CCN(C(=O)C2CC2)CC1 [Olaparib] (partner 8 µM)"
  relative viability: 0.0662
- compound: "Nc1ccn([C@@H]2O[C@H](CO)[C@@H](O)[C@@H]2O)c(=O)n1 [Cytarabine] + COc1cc2c(Oc3ccc(NC(=O)C4(C(=O)Nc5ccc(F)cc5)CC4)cc3F)ccnc2cc1OCCCN1CCOCC1 [Foretinib] (partner 0.25 µM)"
  relative viability: 0.368
- compound: "Nc1ccn([C@@H]2O[C@H](CO)[C@@H](O)[C@@H]2O)c(=O)n1 [Cytarabine] + O=C(CCCCCCC(=O)Nc1ccccc1)NO [Vorinostat] (partner 1 µM)"
  relative viability: 0.169
- compound: "COc1cc2nccc(Oc3ccc(NC(=O)Nc4cc(C)on4)c(Cl)c3)c2cc1OC [Tivozanib] + Cc1nc(Nc2ncc(C(=O)Nc3c(C)cccc3Cl)s2)cc(N2CCN(CCO)CC2)n1 [Dasatinib] (partner 0.075 µM)"
  relative viability: 0.317
- compound: "Nc1ccn([C@@H]2O[C@H](CO)[C@@H](O)[C@@H]2O)c(=O)n1 [Cytarabine] + C[C@@H](Oc1cc(-c2cnn(C3CCNCC3)c2)cnc1N)c1c(Cl)ccc(F)c1Cl [Crizotinib] (partner 1 µM)"
  relative viability: 0.477
- compound: "COc1cc2nccc(Oc3ccc(NC(=O)Nc4cc(C)on4)c(Cl)c3)c2cc1OC [Tivozanib] + Cc1cc(Nc2cc(N3CCN(C)CC3)nc(Sc3ccc(NC(=O)C4CC4)cc3)n2)n[nH]1 [Tozasertib] (partner 0.1 µM)"
  relative viability: 0.417
- compound: "COc1cc2nccc(Oc3ccc(NC(=O)Nc4cc(C)on4)c(Cl)c3)c2cc1OC [Tivozanib] + C[C@]1(O)C[C@@H](c2nc(-c3ccc4ccc(-c5ccccc5)nc4c3)c3c(N)nccn32)C1 [Linsitinib] (partner 1 µM)"
  relative viability: 0.944
- compound: "COc1cc2nccc(Oc3ccc(NC(=O)Nc4cc(C)on4)c(Cl)c3)c2cc1OC [Tivozanib] + O=C(CCCCCCC(=O)Nc1ccccc1)NO [Vorinostat] (partner 1 µM)"
  relative viability: 0.879
- compound: "Nc1ccn([C@@H]2O[C@H](CO)[C@@H](O)[C@@H]2O)c(=O)n1 [Cytarabine] + CCNC(=O)c1noc(-c2cc(C(C)C)c(O)cc2O)c1-c1ccc(CN2CCOCC2)cc1 [Luminespib] (partner 0.01 µM)"
  relative viability: 0.336

* * *

- Test system: ChaGo-K-1
- assay procedure: relative viability (nuclei count vs DMSO), 5 days (fraction); higher = more cells survive
- condition parameters: first compound 0.253 µM
Recorded relative viability by entry
readout label: relative viability

- compound: "O=c1[nH]c2ccccc2n1C1CCN(CCCC(c2ccc(F)cc2)c2ccc(F)cc2)CC1 [Pimozide] + CCNC(=O)c1noc(-c2cc(C(C)C)c(O)cc2O)c1-c1ccc(CN2CCOCC2)cc1 [Luminespib] (partner 0.01 µM)"
  recorded result: 0.472
- compound: "O=c1[nH]c2ccccc2n1C1CCN(CCCC(c2ccc(F)cc2)c2ccc(F)cc2)CC1 [Pimozide] + CC(=O)c1c(C)c2cnc(Nc3ccc(N4CCNCC4)cn3)nc2n(C2CCCC2)c1=O [Palbociclib] (partner 0.5 µM)"
  recorded result: 0.955
- compound: "Cc1cnc(-c2cnc(NCCNc3ccc(C#N)cn3)nc2-c2ccc(Cl)cc2Cl)[nH]1 + COc1cc2c(Oc3ccc(NC(=O)C4(C(=O)Nc5ccc(F)cc5)CC4)cc3F)ccnc2cc1OCCCN1CCOCC1 [Foretinib] (partner 0.25 µM)"
  recorded result: 0.84
- compound: "O=c1[nH]c2ccccc2n1C1CCN(CCCC(c2ccc(F)cc2)c2ccc(F)cc2)CC1 [Pimozide] + CC1(C)CCC(c2ccc(Cl)cc2)=C(CN2CCN(c3ccc(C(=O)NS(=O)(=O)c4ccc(N[C@H](CCN5CCOCC5)CSc5ccccc5)c(S(=O)(=O)C(F)(F)F)c4)cc3)CC2)C1 [Navitoclax] (partner 0.5 µM)"
  recorded result: 0.935

Source listed as the supplement of paper PMC10307832.
